From: PubChem BioAssay (NCATS)

system: Zika virus NS2B-NS3 protease (unlinked complex); assay: Primary screen GU Rhodamine qHTS for Zika virus inhibitors: Unlinked NS2B-NS3 protease assay (AID 1347159); conditions: Recombinant ZIKV NS2B-NS3 protease, Rhodamine110 substrate fluorescence; series mostly up to 107 µM; note: nearly all actives have a fitted effect of over 60% in size
Inconclusive results are not listed. The source made the active and inactive calls. Calls come from the whole dose curve; as a rule, active = well fitted inhibition curve with a large enough effect; inconclusive = small, poorly fitted or top-dose-only effect; inactive = no such curve, though single readings can be large or run the other way.
// classify into True for active, False for inactive

Some solved cases for reference:
1. O=C(O)c1ccc(CCCc2ccc(OCCc3ccc(F)cc3)cc2)o1	True
2. C=C(C)C(C)C1OC23CC4(CO2)C(CCC2C5(C)CCC(OC6OCC(O)C(OC7OC(CO)C(O)C(OC8OCC(O)C(O)C8O)C7O)C6OC6OC(CO)C(O)C6O)C(C)(C)C5CCC24C)C3C(C)(O)C1OC(C)=O (configuration not stated)	False
3. C=C(C)C1CC2(CO)C(=CC1=O)CCC(O)C2C (configuration not stated)	False
4. COC(=O)[C@@]1(C)CC[C@]2(C(=O)O[C@@H]3O[C@H](CO)[C@@H](O)[C@H](O)[C@H]3O)CC[C@]3(C)C(=CCC4[C@@]5(C)CC[C@H](O[C@@H]6O[C@H](C(=O)O)[C@@H](O)[C@H](O)[C@H]6O)C(C)(C)C5CC[C@]43C)[C@@H]2C1 (some centres not stated)	False
5. NC(Cc1c[nH]c2ccccc12)C(=O)NC(CCC(=O)O)C(=O)O (configuration not stated)	False
6. COC(=O)[C@@]1(O)C=CC[C@@H]2[C@@]3(C)C[C@@H](c4ccoc4)OC(=O)[C@H]3CC[C@]21C	False

Now consider the entry below.
**Query** Write down the call the test reported for this compound. Item: COc1cc(COC2OC(CO)C(O)C(O)C2O)cc(OC)c1O (configuration not stated)
**Result** False

---

Assay: qHTS drug screen for cell cycle checkpoint inhibitors in PARPi-resistant BRCA-mutant ovarian cancer cell lines. (AID 1963452)
Details: PEO1/OlaR viability, CellTiter-Glo luminescence, 96 h; measured here: PEO1 parental Z-AUC; stronger effect = lower value
From the text: Women's Malignancies Branch, Center for Cancer Research (CCR), National Cancer Institute (NCI), National Institutes of Health (NIH), Bethesda, MD Poly (ADP-ribose) polymerase inhibitors (PARPis) have changed the treatment paradigm in breast cancer gene (BRCA) - mutant high-grade serous ovarian carcinoma (HGSC). […] 6; Detection; Luminescence, PHERAstar (BMG Labtech) plate reader. […] 6. Luminescence readings were taken using PHERAstar (BMG Labtech). […]
Threshold 0.4: Z-AUC strictly smaller gives condition met, otherwise condition not met.

Some solved cases for reference:
1) CCOC(=O)c1ccnc(CNCC(=O)N(CC)CCN(C)C)c1	condition not met
2) O=C(O)C[C@H](O)C[C@H](O)/C=C/c1c(C2CC2)nc2ccccc2c1-c1ccc(F)cc1	condition met
3) CCOc1cc2ncc(C#N)c(Nc3ccc(OCc4ccccn4)c(Cl)c3)c2cc1NC(=O)/C=C/CN(C)C	condition met
4) OCc1ccccc1O[C@@H]1O[C@H](CO)[C@@H](O)[C@H](O)[C@H]1O	condition not met

**Query** Please indicate whether the reported Z-AUC of "NS(=O)(=O)OC[C@@H]1C[C@@H](n2ccc3c(N[C@H]4CCc5ccccc54)ncnc32)C[C@@H]1O" is strictly below 0.4.
**Result** condition met

**Query** Lookup "CO[C@@H]1COCC[C@@H]1N[C@@H]1CC[C@@](C(=O)N2CCc3ncc(C(F)(F)F)cc3C2)(C(C)C)C1"
**Result** condition not met

**Query** Lookup COc1cc2c(Nc3ccc(Cl)c(Cl)c3F)ncnc2cc1OCC1C[C@@H]2CN(C)C[C@@H]2C1 (stereo partly specified)
**Result** condition met

**Query** Lookup "CC(C)(O)CNc1nc(Nc2ccnc(C(F)(F)F)c2)nc(-c2cccc(C(F)(F)F)n2)n1"
**Result** condition not met
